B1: TPR t1 (parent)
chain: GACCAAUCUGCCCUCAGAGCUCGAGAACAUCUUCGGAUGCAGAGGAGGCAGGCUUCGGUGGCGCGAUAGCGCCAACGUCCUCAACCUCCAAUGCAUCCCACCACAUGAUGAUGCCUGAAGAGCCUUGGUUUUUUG

# Variants of: B1
# method description: polymerase ribozyme fitness, log enrichment relative to wild type (log ratio); higher = more active; in vitro selection for triplet polymerase activity
Label rule, in plain words: polymerase ribozyme fitness (log ratio) of -2 and up is satisfied, under -2 is not satisfied.

## Input # bool: polymerase ribozyme fitness (log ratio) of GACCAAUCGGCCCUAAGAGCUCGAGAACAUCUUCGGAUGCAGAGGAGGCAGGCUUCGGUGGCGCGAUAGCGCCAACGUCCUCAACCUCCAAUGCAUUCCACCACAUGGUGAUGCCUGAAAAGCCUUGGUUUUUUG [U9G C15A C97U A108G G120A] >= -2
## Output satisfied

## Input Further, for GACCCAUCUGCCCUCAGAGCUCGAGAACAUCUUCGGAUGCAGAGGAGGCAGGCUUCGGUGGCGCGAUAGCUCCAACGUCCUCAACCUCCAAUGCAUCCCACCACAUGAUGAUGCCUGAAGAGCCUUGGUUUUUUG [A5C G71U] ?
## Output satisfied

## Input Next: GACCAAACCGCUCUCAGAGCUCGAGAACAUCUUCGGAUGCAGAGGAGGCAGGCUUCCGUGGCUCGAUAGCGCCAACGUCCUCAACCUCCAAUGCAUCCCACCACAUGAUGAUGCCUGAAGAGCCUUGGUUUUUUG [U7A U9C C12U G57C G63U]
## Output satisfied

## Input Another: GACCAAUCUGCCCUCAGAGCUCGAGAACAUCUUCGGAUGCCGAGGAGGCAGGCUUCGGUGGCGCGAUAGCGCCAACCUCCUUAACCUCCAAUGCAUCCCACCACAUGAUGAUGCCUGAAGAGCCUUGGUUUUUUG [A41C G77C C82U]
## Output satisfied

## Input Try GACCAAUCUGCCCUCAGAGCUCGAGAACAUCUUCGGAUGCAGAGGAGGCAGGCUUCGGUGGCGCGAUAGCGCCAACGUCCUCAACCUCCAAAGCAUCCCACCACAUGAUGGUGCCUGAAGAGCCUUGGUUUUUUG [U92A A111G] next.
## Output not satisfied

## Input Query GACCAAUCUGCCCUCAGAGCUCGAGAACAUCUUCGGAUGCAGAGGAGUUAGGCUUCGGUGGCGCGAUAGCCCCAACGUCCUCAACAUCCAAUGCAUCCCACCACAUGAUGAUGCCUGAAGAGCCUUGGUUUUUUG [G48U C49U G71C C86A] next
## Output not satisfied

## Input How about this variant: GACCAAUCUGCCCUCAGAGCUCGAGAACAUCUUCGGAUGCAGAGGAGGCAGGCUUCGGUGGCGCGAUAGCGCCAACGUCCUCAACCUCCAAUGCAUCCCACCACAUGAUGAUGCUUGAAGAGCCUUGUUUUUUUG [C115U G128U]
## Output not satisfied

## Input And the next one, GACCAAUCUGCCCUCAGAGCUCGAGAACAUCUUCGGAUGCAGAGGAGUCAGGCUUCGGUGGCGCGAUAGCGCCAACGUCCUCAACCUCCAAUGCAUCCCACCACAUGAUGAUGCCUGAAUAGCCUUGGUUUUUUG [G48U G120U] ?
## Output satisfied

## Input Now consider GACCAAUCUGCCCUCAGAGCUCGAGAACAUCUUCGGAUGCAGAGGAGGCAGGUUUCGGUGGCGCGAUAACGCCAACGUCCUCAACCUCCAAUGCAUCCCACCACAUGAUGAUGCCUGAAGAGCCUUGGUUUUUUG [C53U G69A] .
## Output not satisfied

## Input # iterate: GACCAAUCUGCCCUCAGAGCUAGAGAACAUCUUCGGAUGAAGAGGAGGCAGGCUUCGGUGGCGCGAUAGCGCAAACGUCCUCAACCUCCAAUGCAUCCCACCACAUGAUGAUGCCUGAAGAGUCUUGGUUUUUUG [C22A C40A C73A C123U]
## Output not satisfied

## Input Proceed to GACCAAUCUGCCCUCAGAGCUCGAGAACAUCUUCGUAUGCAGAGGAGGCAGGCUUCGGUGGCGCGAUAGCGCCAACGGCCUCAACCUCCAAUGCAUCCCACCACAUGAUGAUGCGUGAAGAGCCUUGGUUUUUUG [G36U U78G C115G]
## Output not satisfied

## Input Now the variant GACCAAUCUGCCCUCAGAGCUCGAGAACAUCUUCGGAUGCAGAGAAGACAGGCUUCGGUGGCGCGAUAGCGCCAACGUCCUCAACAUCUAAUGCAUCCCACCACAUGAUGAUGCCUGAAGAGCCUUGGUUUUUUG [G45A G48A C86A C89U]
## Output not satisfied

## Input # repeat for GACCAAUCUGCCCUCAGAGCUCGAGAACAUCUUCGGAUGCAGAGGAGGCAGGCUUCGGUGGCGCGAUAGCGGCAACGUCCUCAACCUCCAAUGCAUCCCACCACAUGAUGAUGACUGAAGAGCCUUGGUCUUGUG [C72G C114A U130C U133G]
## Output satisfied

## Input What about this variant? GACCAAUCUGCCCUCAGAGCUCGAGAACAUCUUCGGAUGCAGAGGAGGCAGGCUUCGGUGGCGCGAUAGCGCCAACGUCCUCAACCUCCAAUGCAUCCCACCACAUGAUGAUGCCUGAAGAGGCUGGGUUUUUUG [C123G U126G]
## Output satisfied

## Input GACCAAUCUGCCCUUAGAGCUCGAGAACAUCUUCGGAUGCAGAGGAGGCAGGCCUCGGUGGCGCGAUAGCGUCAACGUCCUCAACCUCCAAUGCAUCCCACCACAUGAUGAUGCCUGAAGAGCCUUGGUUUUUUG [C15U U54C C72U] , same question.
## Output satisfied

## Input Same thing, different variant: GACCAAUCUGCCCGCAGAGCUCGAGAACAUCUUCGGAUGCAGAGGAGACAGGCUUCGGUGGCGUGAUAGCGCCAACGUCCUCAACCUCCAAUGCAUCCCACCACAUGAUGAUGCCAGAAGAGGCUUGGUUCUUUG [U14G G48A C64U U116A C123G U131C]
## Output satisfied

## Input Continue with GACCAAUCUGCCCUCAGAGCUCGAGAACCUCUUCGGAUGCAGAGGAGGCAGGCUUAGGUGGCGCGAUAGCCCCAACGUCCUCAACCACCAAUGCAUCACAUCACAUGAUCAUGCCUGAAGAGCCUUGGUUUUUUG [A29C C56A G71C U87A C98A C101U G110C]
## Output not satisfied

## Input Then GACGAAUCUGCCCUCAGAGCUCGAGAACAUCUUCGGAUGCAGAGGAGGCAGGCUUCGGUGGCGCGGUAGCGCCAACGUCCUCAACCUCCAAUGCAUCCCACCACAUGAUGAUGCAUGAAGAGCCUUGGUUUUUUG [C4G A66G C115A] ?
## Output not satisfied

## Input How about this variant: GACCAAUCUGCCCUCAGAGCUCGAGAACAUCUUCGGAUGCAGAGGAGGCAGGCGUCGGUGGCGCGAUAGCGCCAACGUCCUAAACCUCCAAUGCAUCCCACCACAUGAUGAUGCCUGAAGAGCCUUGGUUUUUUG [U54G C82A]
## Output satisfied

## Input // same read-out, input: GACCAAUCUGCCCUCAGAGCUCGAGAACAUCUUCGGAUGCAGAGGAGGCAAGCUUCGGUGGCGCGAUAGCGCCAACGUCCUCAACCUCCAAUGCAUCCUACCACAUGAUGAUGCCUGAAGAGCCUUGGUUUUUUG [G51A C99U]
## Output not satisfied

## Input Next variant up: GACCAAUCUGCCCUCAGAGCUCGAGAACAUCUUCGGAUGCAGAGGGGGCAGGCUUCGGUGGCGCGAUAGCGCUAACGUCCUCAACCACCACUGCAUCCCACCACAUGAUGAUACCUGAAGAGCCUUGGUUUUUUG [A46G C73U U87A A91C G113A]
## Output not satisfied

## Input And for GACCAAUCUGCCCUCUGAGCUCGAGAACAUCUUCGGAUGCAGAGGAGGCAGACUUCGGUGGCGCGAUAGCGUCAACGUCCUCAACCUCCAAUGCAUCCCACCACAUGAUGAUGCCUGAAGAGCCUUGGUUUUUUG [A16U G52A C72U] ?
## Output satisfied
